biological target: mAC9 (Homo sapiens); construct: Human mAC genes were from GenScript and fitted with a C-terminal FLAG-tag; FLAG (C); made in house; host or cells: HEK293, permanently transfected; membrane preparation; experiment: AC assay, Gsα-stimulated mAC9 in membranes from transfected HEK293 cells; format: biochemical; details: enhancement of 300 nM Gsα-stimulated activity; read-out: EC50 for mAC9
Sequence (O60503 whole entry): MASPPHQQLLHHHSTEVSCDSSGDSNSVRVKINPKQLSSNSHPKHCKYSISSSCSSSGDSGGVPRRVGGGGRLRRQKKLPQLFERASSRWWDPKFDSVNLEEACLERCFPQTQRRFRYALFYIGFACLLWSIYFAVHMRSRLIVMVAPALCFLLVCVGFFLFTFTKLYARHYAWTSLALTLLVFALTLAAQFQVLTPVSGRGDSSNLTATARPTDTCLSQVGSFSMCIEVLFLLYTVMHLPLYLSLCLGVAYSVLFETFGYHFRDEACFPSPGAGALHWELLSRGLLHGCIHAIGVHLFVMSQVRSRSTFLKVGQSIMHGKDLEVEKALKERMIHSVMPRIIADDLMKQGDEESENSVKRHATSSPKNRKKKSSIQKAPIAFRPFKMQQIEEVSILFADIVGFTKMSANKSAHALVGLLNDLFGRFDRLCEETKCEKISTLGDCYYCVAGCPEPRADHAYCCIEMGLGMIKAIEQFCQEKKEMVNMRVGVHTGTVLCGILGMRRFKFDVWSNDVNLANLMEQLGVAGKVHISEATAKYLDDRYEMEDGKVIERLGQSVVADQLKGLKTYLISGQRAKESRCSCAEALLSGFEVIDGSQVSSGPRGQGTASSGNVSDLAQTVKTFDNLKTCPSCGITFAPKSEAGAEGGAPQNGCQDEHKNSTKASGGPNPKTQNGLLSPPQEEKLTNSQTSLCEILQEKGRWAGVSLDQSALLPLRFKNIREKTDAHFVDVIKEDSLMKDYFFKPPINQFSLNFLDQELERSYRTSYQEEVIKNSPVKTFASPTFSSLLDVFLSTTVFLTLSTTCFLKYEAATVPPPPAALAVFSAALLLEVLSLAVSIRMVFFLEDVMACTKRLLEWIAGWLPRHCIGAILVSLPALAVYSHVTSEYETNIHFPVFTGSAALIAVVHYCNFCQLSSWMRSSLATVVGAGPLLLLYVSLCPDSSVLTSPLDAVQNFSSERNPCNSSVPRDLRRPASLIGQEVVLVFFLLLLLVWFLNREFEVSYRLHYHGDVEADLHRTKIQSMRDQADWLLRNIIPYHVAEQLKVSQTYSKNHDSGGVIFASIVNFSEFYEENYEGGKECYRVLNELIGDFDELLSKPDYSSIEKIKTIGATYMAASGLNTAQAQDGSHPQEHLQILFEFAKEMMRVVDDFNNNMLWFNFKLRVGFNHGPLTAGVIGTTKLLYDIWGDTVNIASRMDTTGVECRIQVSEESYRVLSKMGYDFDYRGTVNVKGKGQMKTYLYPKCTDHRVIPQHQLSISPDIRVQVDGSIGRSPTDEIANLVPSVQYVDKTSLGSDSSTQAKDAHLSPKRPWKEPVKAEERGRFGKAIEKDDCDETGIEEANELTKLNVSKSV
Sequence (P63092 2-394 Q227L partner): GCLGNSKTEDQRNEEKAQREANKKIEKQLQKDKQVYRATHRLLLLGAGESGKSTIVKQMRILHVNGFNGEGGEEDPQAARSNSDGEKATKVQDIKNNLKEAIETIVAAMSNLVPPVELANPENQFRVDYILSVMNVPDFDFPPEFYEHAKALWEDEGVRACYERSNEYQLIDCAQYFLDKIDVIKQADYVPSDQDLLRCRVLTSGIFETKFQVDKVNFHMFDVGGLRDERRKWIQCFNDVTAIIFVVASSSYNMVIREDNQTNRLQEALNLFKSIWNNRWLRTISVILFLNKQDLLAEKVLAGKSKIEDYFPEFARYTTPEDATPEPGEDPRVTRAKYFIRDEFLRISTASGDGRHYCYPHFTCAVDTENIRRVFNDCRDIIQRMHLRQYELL
Give EC50 for every item shown.
Entry rule: numbers only, all in µM.

Read the entry CCCCCCCC/C=C/CCCCCCCC(=O)O and write its reported EC50.
5

Report measured EC50; entry is CCCCCCCCCCCC(=O)O
13.7

Identify measured EC50 associated with CCCCCCCC/C=C\CCCCCCCC(=O)O
7.8

Supply EC50 value. Item: CCCCCCCCCCCCCCCC(=O)O
8.6

Answer with the recorded EC50 of CCCCCC/C=C\CCCCCCCCCC(=O)O [cis-Vaccenic acid, cis-Vaccenic ((11E)-octadecenoic) acid] only.
8.5

###

target: mAC1 (Homo sapiens); construct: Human mAC genes were from GenScript and fitted with a C-terminal FLAG-tag; FLAG (C); made in house; host or cells: HEK293, permanently transfected; membrane preparation; assay: AC assay, Gsα-stimulated mAC1 in membranes from transfected HEK293 cells; format: biochemical; conditions: attenuation of 300 nM Gsα-stimulated activity; read-out: IC50 for mAC1
Sequence (Q08828 whole entry): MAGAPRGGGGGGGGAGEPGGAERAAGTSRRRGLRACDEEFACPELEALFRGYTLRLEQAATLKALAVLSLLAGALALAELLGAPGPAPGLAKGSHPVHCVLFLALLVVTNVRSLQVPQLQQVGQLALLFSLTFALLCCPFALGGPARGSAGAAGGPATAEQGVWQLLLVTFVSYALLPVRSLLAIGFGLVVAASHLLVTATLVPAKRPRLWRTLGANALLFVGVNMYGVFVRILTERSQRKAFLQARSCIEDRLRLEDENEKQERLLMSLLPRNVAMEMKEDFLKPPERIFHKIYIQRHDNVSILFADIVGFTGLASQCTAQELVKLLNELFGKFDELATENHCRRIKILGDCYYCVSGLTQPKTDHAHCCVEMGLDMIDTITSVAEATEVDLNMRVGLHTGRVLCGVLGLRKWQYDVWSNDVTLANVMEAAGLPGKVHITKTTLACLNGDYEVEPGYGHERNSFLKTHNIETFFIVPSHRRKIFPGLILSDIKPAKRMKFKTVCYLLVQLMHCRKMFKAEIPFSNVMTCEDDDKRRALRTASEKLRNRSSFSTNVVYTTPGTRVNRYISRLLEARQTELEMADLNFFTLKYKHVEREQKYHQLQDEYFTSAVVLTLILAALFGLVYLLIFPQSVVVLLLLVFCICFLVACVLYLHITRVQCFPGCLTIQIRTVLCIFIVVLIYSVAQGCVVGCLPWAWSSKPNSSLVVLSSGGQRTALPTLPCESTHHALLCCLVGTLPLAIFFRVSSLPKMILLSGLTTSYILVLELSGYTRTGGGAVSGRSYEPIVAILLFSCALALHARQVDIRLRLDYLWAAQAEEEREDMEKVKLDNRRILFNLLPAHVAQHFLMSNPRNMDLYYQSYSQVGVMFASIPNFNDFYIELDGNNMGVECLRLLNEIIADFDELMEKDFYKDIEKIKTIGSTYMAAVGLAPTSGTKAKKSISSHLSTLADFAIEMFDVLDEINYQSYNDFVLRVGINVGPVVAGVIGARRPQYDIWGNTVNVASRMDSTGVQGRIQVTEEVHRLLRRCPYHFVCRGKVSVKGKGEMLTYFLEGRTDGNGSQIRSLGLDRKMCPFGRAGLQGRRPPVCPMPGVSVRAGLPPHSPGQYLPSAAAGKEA
quantity: IC50 (µM)
The response must be a number in µM with no trailing unit.

Please give the documented IC50 of CCCCC/C=C\C/C=C\C/C=C\C/C=C\CCCC(=O)O
23
